# SUBJECT OF TEST: Hck (UniProt P08631)
# Sequence (P08631 whole entry, looked up): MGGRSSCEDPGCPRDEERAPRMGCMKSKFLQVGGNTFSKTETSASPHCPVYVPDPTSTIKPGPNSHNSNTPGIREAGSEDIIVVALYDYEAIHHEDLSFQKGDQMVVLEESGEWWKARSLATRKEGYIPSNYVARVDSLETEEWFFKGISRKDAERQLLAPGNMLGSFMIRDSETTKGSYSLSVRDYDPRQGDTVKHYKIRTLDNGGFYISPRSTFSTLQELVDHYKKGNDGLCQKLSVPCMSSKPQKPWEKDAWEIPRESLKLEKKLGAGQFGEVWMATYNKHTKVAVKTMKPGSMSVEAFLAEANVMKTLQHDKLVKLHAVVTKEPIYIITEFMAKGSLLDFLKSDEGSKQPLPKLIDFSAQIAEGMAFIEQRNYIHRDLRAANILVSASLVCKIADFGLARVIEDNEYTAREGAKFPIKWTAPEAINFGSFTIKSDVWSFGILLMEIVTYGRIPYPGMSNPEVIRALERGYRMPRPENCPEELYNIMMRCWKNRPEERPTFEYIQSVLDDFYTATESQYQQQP
# EXPERIMENT SUMMARY: phosphorylation enrichment, bacterial display (enrichment ratio); higher = better substrate or ligand; peptides without Tyr show the background
Can you tell me phosphorylation enrichment for the items I'm about to list?
// print number alone

Input line: Requested read-out: phosphorylation enrichment. Entry: YPKARYRWLVL [APTX_Y214_H215R]
Output line: 0.422

Input line: Requested read-out: phosphorylation enrichment. Entry: IQTDGDRAPEA [UHMK1_Y197_Y197D]
Output line: 0.655

Input line: Requested read-out: phosphorylation enrichment. Entry: LKSEMYQKLFK [RGS13_Y146_L150F]
Output line: 0.756

Input line: Requested read-out: phosphorylation enrichment. Entry: MSSLPYMKVIF [SLC4A11_Y853_M856V]
Output line: 0.622

====

# SUBJECT OF TEST: Jak2 (UniProt O60674)
# Sequence (O60674 whole entry, looked up): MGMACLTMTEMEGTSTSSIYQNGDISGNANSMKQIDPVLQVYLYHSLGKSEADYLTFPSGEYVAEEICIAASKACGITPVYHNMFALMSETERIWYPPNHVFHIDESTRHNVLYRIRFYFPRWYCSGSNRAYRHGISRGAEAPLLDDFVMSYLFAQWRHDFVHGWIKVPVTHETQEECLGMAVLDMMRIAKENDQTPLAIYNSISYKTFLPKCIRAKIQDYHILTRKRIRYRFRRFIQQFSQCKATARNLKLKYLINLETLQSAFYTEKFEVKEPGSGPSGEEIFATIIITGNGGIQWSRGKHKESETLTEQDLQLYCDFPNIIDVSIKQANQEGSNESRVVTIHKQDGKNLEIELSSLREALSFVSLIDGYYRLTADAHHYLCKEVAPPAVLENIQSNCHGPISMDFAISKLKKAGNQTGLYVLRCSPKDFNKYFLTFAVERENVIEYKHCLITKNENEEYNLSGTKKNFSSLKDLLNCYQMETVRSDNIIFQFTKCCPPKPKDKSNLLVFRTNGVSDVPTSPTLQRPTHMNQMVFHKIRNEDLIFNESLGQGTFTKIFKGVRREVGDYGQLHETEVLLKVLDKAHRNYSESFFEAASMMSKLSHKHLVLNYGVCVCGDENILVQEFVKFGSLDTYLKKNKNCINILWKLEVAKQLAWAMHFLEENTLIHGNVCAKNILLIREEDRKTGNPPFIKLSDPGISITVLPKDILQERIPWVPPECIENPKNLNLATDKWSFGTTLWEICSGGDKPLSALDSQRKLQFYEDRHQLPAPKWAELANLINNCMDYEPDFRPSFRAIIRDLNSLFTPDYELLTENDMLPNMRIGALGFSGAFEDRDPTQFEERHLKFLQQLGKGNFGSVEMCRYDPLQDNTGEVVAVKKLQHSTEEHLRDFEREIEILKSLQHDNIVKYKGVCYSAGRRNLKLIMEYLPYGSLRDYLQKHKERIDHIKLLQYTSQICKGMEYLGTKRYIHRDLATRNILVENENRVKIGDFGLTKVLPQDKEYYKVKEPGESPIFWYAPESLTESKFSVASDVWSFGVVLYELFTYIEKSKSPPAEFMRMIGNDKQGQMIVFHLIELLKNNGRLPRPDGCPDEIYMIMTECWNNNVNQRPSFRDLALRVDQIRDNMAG
# EXPERIMENT SUMMARY: phosphorylation enrichment, bacterial display (enrichment ratio); higher = better substrate or ligand; peptides without Tyr show the background
Can you tell me phosphorylation enrichment for the items I'm about to list?
// print number alone

Input line: Requested read-out: phosphorylation enrichment. Entry: HNELYYEAAEH [VANGL1_Y345_E347A]
Output line: 1.16

Input line: Requested read-out: phosphorylation enrichment. Entry: KGERGYPGTLG [COL4A1_Y348_P352L]
Output line: 0.475

Input line: Requested read-out: phosphorylation enrichment. Entry: NFATLYLKIFH [PDE6B_Y219_YF]
Output line: 0.953

Input line: Requested read-out: phosphorylation enrichment. Entry: CTTNHYNFMCN [TP53_Y234_I232N_YF]
Output line: 0.511

Input line: Requested read-out: phosphorylation enrichment. Entry: DRLASYLDKVP [KRT14_Y129_R134P]
Output line: 0.883

Input line: Requested read-out: phosphorylation enrichment. Entry: EKIANYKEGTY [CLRN1_Y171]
Output line: 0.654

Input line: Requested read-out: phosphorylation enrichment. Entry: ERPGVYTNVVE [F11_Y608]
Output line: 0.519

Input line: Requested read-out: phosphorylation enrichment. Entry: PSQRCYVYYYS [PTEN_Y174_R173C]
Output line: 2.59

Input line: Requested read-out: phosphorylation enrichment. Entry: IRYPPYTDWNQ [ALDH3B2_Y365_H361R]
Output line: 0.675

====

# SUBJECT OF TEST: EPHB1 (UniProt P54762)
# Sequence (P54762 whole entry, looked up): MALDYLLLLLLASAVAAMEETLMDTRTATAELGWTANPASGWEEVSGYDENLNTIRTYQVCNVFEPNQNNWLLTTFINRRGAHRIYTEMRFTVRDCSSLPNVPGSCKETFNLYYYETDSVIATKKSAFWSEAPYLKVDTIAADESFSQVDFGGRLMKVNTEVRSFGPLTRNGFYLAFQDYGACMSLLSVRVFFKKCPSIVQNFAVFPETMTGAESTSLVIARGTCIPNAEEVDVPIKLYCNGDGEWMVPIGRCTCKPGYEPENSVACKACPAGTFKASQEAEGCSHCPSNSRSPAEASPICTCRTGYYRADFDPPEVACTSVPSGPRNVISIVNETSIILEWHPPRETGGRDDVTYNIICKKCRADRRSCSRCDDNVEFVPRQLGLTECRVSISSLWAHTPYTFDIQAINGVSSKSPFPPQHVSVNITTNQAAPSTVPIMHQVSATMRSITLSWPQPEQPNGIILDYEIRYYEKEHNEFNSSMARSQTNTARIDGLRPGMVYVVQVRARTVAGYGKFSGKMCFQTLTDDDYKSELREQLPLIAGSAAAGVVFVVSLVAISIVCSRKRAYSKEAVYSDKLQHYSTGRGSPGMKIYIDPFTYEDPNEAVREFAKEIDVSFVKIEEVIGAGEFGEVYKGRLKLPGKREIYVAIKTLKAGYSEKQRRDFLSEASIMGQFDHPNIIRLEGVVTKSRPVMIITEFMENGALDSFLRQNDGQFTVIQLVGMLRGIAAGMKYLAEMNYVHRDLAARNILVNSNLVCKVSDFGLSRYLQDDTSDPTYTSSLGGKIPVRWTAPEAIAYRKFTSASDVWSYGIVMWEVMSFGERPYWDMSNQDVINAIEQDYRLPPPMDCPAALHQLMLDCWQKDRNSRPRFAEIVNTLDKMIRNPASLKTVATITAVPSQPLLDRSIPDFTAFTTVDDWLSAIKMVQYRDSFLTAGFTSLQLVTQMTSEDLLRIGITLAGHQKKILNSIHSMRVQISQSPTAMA
# EXPERIMENT SUMMARY: phosphorylation enrichment, bacterial display (enrichment ratio); higher = better substrate or ligand; peptides without Tyr show the background
Label Satisfied for high-side phosphorylation enrichment (at or above 0.5) and Not satisfied for low-side phosphorylation enrichment (below it).

Input line: Identify whether the reported phosphorylation enrichment of the following sequence is 0.5 or greater: SGPRRYNIAAL [TTR_Y125_T126N]
Output line: Not satisfied

Input line: Identify whether the reported phosphorylation enrichment of the following sequence is 0.5 or greater: FEAMEYLESKQ [BTK_Y511_C506Y_YF]
Output line: Satisfied

Input line: Identify whether the reported phosphorylation enrichment of the following sequence is 0.5 or greater: EQLRAYLEGEC [HLA-C_Y183_T187E]
Output line: Satisfied

Input line: Identify whether the reported phosphorylation enrichment of the following sequence is 0.5 or greater: RGYRVCYTPDS [PTPRF_Y450_Y450C]
Output line: Satisfied

Input line: Identify whether the reported phosphorylation enrichment of the following sequence is 0.5 or greater: FAAAGYGSLEA [EPHA10_Y959]
Output line: Not satisfied

====

# SUBJECT OF TEST: c-Src SH2
# EXPERIMENT SUMMARY: SH2 binding enrichment of the phosphorylated peptide, bacterial display (enrichment ratio); higher = better substrate or ligand; peptides without Tyr show the background
Label scheme, based on SH2 binding enrichment: LOW: < 0.5; MID: ≥ 0.5 and < 0.8; HIGH: ≥ 0.8

Input line: Lab log: TTPFNYSFIFK [RAB14_Y8_A4T_YF] — assign SH2 binding enrichment category
Output line: HIGH

Input line: Lab log: YRIGPYQPNVP [MATR3_Y784] — assign SH2 binding enrichment category
Output line: MID

Input line: Lab log: KDIENHIQDGK [RAD50_Y964_Y964H] — assign SH2 binding enrichment category
Output line: LOW

Input line: Lab log: ELTSVYGSRAR [SENP1_Y349_D350G] — assign SH2 binding enrichment category
Output line: LOW

Input line: Lab log: LHVKMYNFLRS [ADGRG7_Y760_R756H] — assign SH2 binding enrichment category
Output line: HIGH

Input line: Lab log: SVVVPYEPPEG [TP53_Y220_V225G] — assign SH2 binding enrichment category
Output line: MID

Input line: Lab log: DYYDLYGGEKK [PTPN11_Y66_F71K] — assign SH2 binding enrichment category
Output line: HIGH

Input line: Lab log: HQNGTYGLHQD [SGSH_Y89_M88T] — assign SH2 binding enrichment category
Output line: LOW

Input line: Lab log: YGCGMYSHLQG [LGR4_Y848_D844G] — assign SH2 binding enrichment category
Output line: HIGH

Input line: Lab log: IRTDAYVQAMT [RPE65_Y89_R91Q] — assign SH2 binding enrichment category
Output line: MID

Input line: Lab log: SLAARYYNWVC [FLT4_Y1230_S1235C] — assign SH2 binding enrichment category
Output line: HIGH

Input line: Lab log: ERLWVYGMSSS [F8_Y1728_D1727V] — assign SH2 binding enrichment category
Output line: MID

Input line: Lab log: FKDGQYWIRGW [ACSF3_Y466_R471W] — assign SH2 binding enrichment category
Output line: LOW

Input line: Lab log: PYTDPYYDYEI [ZC3H18_Y371_A368T] — assign SH2 binding enrichment category
Output line: HIGH

Input line: Lab log: AALKLYHVSDS [VIL1_Y256] — assign SH2 binding enrichment category
Output line: LOW

Input line: Lab log: VKPENYRRLDV [VHL_Y175_I180V] — assign SH2 binding enrichment category
Output line: LOW

Input line: Lab log: HNGVSYFINLC [IGF2R_Y2024_YF] — assign SH2 binding enrichment category
Output line: LOW

Input line: Lab log: DDEENYENVPR [FCRL3_Y722] — assign SH2 binding enrichment category
Output line: MID

Input line: Lab log: TKDTFYKQRMF [GBA_Y451_P454R] — assign SH2 binding enrichment category
Output line: LOW

Input line: Lab log: HESEIYCKVCF [CSRP3_Y57_YF] — assign SH2 binding enrichment category
Output line: HIGH

Input line: Lab log: REIIAYQPFGK [PRKCG_Y529_P524R_YF] — assign SH2 binding enrichment category
Output line: HIGH

Input line: Lab log: LAVVDYIRRQK [ATM_Y1915_M1916I] — assign SH2 binding enrichment category
Output line: LOW

Input line: Lab log: DISEPYEVFRI [IRF8_Y107_K108E_YF] — assign SH2 binding enrichment category
Output line: MID

Input line: Lab log: HSLHDYKEALM [ADA2_Y337] — assign SH2 binding enrichment category
Output line: LOW

Input line: Lab log: REVPVYISEDS [SYNM_Y460_G462S] — assign SH2 binding enrichment category
Output line: MID

Input line: Lab log: GSRGKYSSGFH [ATM_Y332_R337H] — assign SH2 binding enrichment category
Output line: HIGH

Input line: Lab log: KLKRSYSSPDI [USP8_Y717] — assign SH2 binding enrichment category
Output line: LOW

Input line: Lab log: MARDIYRASYY [ALK_Y1278] — assign SH2 binding enrichment category
Output line: HIGH

Input line: Lab log: NREGVYTDFAP [TGFBI_Y537_V539D] — assign SH2 binding enrichment category
Output line: MID

Input line: Lab log: NHQYDYTFHWT [CSNK1A1_Y294_D297H] — assign SH2 binding enrichment category
Output line: HIGH

Input line: Lab log: KSPDSYQKILP [ATM_Y1415_L1420P] — assign SH2 binding enrichment category
Output line: HIGH

Input line: Lab log: FEAMEYLESKQ [BTK_Y511_C506Y_YF] — assign SH2 binding enrichment category
Output line: LOW

Input line: Lab log: SNNFIYKTLGV [FAM83B_Y639_YF] — assign SH2 binding enrichment category
Output line: LOW

Input line: Lab log: RGSQQYRALPV [TUBB8_Y281_T285P] — assign SH2 binding enrichment category
Output line: MID

Input line: Lab log: YSNVLYRPRGP [TMIGD2_Y197_A202P] — assign SH2 binding enrichment category
Output line: MID

Input line: Lab log: MSSLPYMKVIF [SLC4A11_Y853_M856V] — assign SH2 binding enrichment category
Output line: HIGH

Input line: Lab log: RPSELYFSKIG [SMG1_Y2253_YF] — assign SH2 binding enrichment category
Output line: MID

Input line: Lab log: KPVDTYYDSTR [DYNC2H1_Y2230_M2227V] — assign SH2 binding enrichment category
Output line: HIGH

Input line: Lab log: DDKQPYEKKAE [HMGB1_Y144_A149E] — assign SH2 binding enrichment category
Output line: MID

Input line: Lab log: LQTFHYHGHSM [PDHA1_Y289_R288H_YF] — assign SH2 binding enrichment category
Output line: HIGH

Input line: Lab log: MRALTYCDLHK [KCNH2_Y827_V822M] — assign SH2 binding enrichment category
Output line: MID

Input line: Lab log: IIWDSYTTNKM [GNB4_Y85] — assign SH2 binding enrichment category
Output line: LOW

Input line: Lab log: SFDLDYDSVQP [MYC_Y16_N11S_YF] — assign SH2 binding enrichment category
Output line: LOW

Input line: Lab log: YETVKYINNER [ABCB7_Y345_F346I] — assign SH2 binding enrichment category
Output line: HIGH

Input line: Lab log: GADAIYDHINE [UQCR10_Y44] — assign SH2 binding enrichment category
Output line: MID
